Where these numbers come from: patent US20230016424A1

Listed compounds paired with reported Remaining (T = 60 min)
methodSummary: Liver Microsome stability (In Vitro Metabolism)
Type: in vitro ADME
measurementContext: Rat liver microsomes
measuredAttribute: Remaining (T = 60 min) (%)

- compound: "CNC(=O)C1C(O)CC2(O)CC(O)CC(O)C(O)CCC(O)CC(O)CC(=O)OC(C)C(C)C(O)C(C)C=CC=CC=CC=CC=CC=CC=CC(OC3OC(C)C(O)C(N)C3O)CC1O2 (stereo not drawn) [AN]"
  quantitativeResult: 106
- compound: "CC1C=CC=CC=CC=CC=CC=CC=CC(OC2OC(C)C(O)C(N)C2O)CC2OC(O)(CC(O)CC(O)C(O)CCC(O)CC(O)CC(=O)OC(C)C(C)C1O)CC(O)C2C(=O)NCCN (stereo not drawn) [AM]"
  quantitativeResult: 113
- compound: "CC1C=CC=CC=CC=CC=CC=CC=CC(OC2OC(C)C(O)C(N)C2O)CC2OC(O)(CC(O)CC(O)C(O)CCC(O)CC(O)CC(=O)OC(C)C(C)C1O)CC(O)C2C(=O)NCCO (stereo not drawn) [Compound BA]"
  quantitativeResult: 115

* * *

Listed molecules paired with reported Remaining (T = NCF60 min)
methodSummary: Liver Microsome stability (In Vitro Metabolism)
Assay type: in vitro ADME
measurementContext: Mouse liver microsomes, no cofactor 60 min

- molecule: "CC1C=CC=CC=CC=CC=CC=CC=CC(OC2OC(C)C(O)C(N)C2O)CC2OC(O)(CC(O)CC(O)C(O)CCC(O)CC(O)CC(=O)OC(C)C(C)C1O)CC(O)C2C(=O)NCCN (stereo not drawn)"
  Remaining (T = NCF60 min) [%]: 176
- molecule: "COC(=O)C(Cc1c[nH]cn1)NC(=O)C1C(O)CC2(O)CC(O)CC(O)C(O)CCC(O)CC(O)CC(=O)OC(C)C(C)C(O)C(C)C=CC=CC=CC=CC=CC=CC=CC(OC3OC(C)C(O)C(N)C3O)CC1O2 (stereo not drawn)"
  Remaining (T = NCF60 min) [%]: 139
- molecule: "CC1C=CC=CC=CC=CC=CC=CC=CC(OC2OC(C)C(O)C(N)C2O)CC2OC(O)(CC(O)CC(O)C(O)CCC(O)CC(O)CC(=O)OC(C)C(C)C1O)CC(O)C2C(=O)NCCO (stereo not drawn)"
  Remaining (T = NCF60 min) [%]: 140

* * *

Tested on: C. glabrata
methodSummary: MIC
Assay type: cell-based
measuredAttribute: MIC C. glabrata (µM)

- compound: "CC(C)CC(CO)NC(=O)C1C(O)CC2(O)CC(O)CC(O)C(O)CCC(O)CC(O)CC(=O)OC(C)C(C)C(O)C(C)C=CC=CC=CC=CC=CC=CC=CC(OC3OC(C)C(O)C(N)C3O)CC1O2 (stereo not shown) [AE]"
  measuredAttribute: "MIC C. glabrata"
  uom: "µM"
  quantitativeResult: 0.4
- compound: "CC1C=CC=CC=CC=CC=CC=CC=CC(OC2OC(C)C(O)C(N)C2O)CC2OC(O)(CC(O)CC(O)C(O)CCC(O)CC(O)CC(=O)OC(C)C(C)C1O)CC(O)C2C(=O)NC1CCCCC1 (stereo not shown) [AR6]"
  measuredAttribute: "MIC C. glabrata"
  uom: "µM"
  quantitativeResult: 750
- compound: "CC1C=CC=CC=CC=CC=CC=CC=CC(OC2OC(C)C(O)C(N)C2O)CC2OC(O)(CC(O)CC(O)C(O)CCC(O)CC(O)CC(=O)OC(C)C(C)C1O)CC(O)C2C(=O)NCCO (stereo not shown) [Compound AA]"
  measuredAttribute: "MIC C. glabrata"
  uom: "µM"
  quantitativeResult: 0.145
- compound: "CC1C=CC=CC=CC=CC=CC=CC=CC(OC2OC(C)C(O)C(N)C2O)CC2OC(O)(CC(O)CC(O)C(O)CCC(O)CC(O)CC(=O)OC(C)C(C)C1O)CC(O)C2C(=O)NCC(O)CO (stereo not shown) [AK]"
  measuredAttribute: "MIC C. glabrata"
  uom: "µM"
  quantitativeResult: 0.1
- compound: "CC1C=CC=CC=CC=CC=CC=CC=CC(OC2OC(C)C(O)C(N)C2O)CC2OC(O)(CC(O)CC(O)C(O)CCC(O)CC(O)CC(=O)OC(C)C(C)C1O)CC(O)C2C(=O)NCC(O)CO (mixture of isomers) [AJ]"
  measuredAttribute: "MIC C. glabrata"
  uom: "µM"
  quantitativeResult: 0.08
- compound: "CC(CO)NC(=O)C1C(O)CC2(O)CC(O)CC(O)C(O)CCC(O)CC(O)CC(=O)OC(C)C(C)C(O)C(C)C=CC=CC=CC=CC=CC=CC=CC(OC3OC(C)C(O)C(N)C3O)CC1O2 (stereo not shown) [AC]"
  measuredAttribute: "MIC C. glabrata"
  uom: "µM"
  quantitativeResult: 0.3
- compound: "CC1C=CC=CC=CC=CC=CC=CC=CC(OC2OC(C)C(O)C(N)C2O)CC2OC(O)(CC(O)CC(O)C(O)CCC(O)CC(O)CC(=O)OC(C)C(C)C1O)CC(O)C2C(=O)NC(CO)C(C)(C)C (stereo not shown) [AF]"
  measuredAttribute: "MIC C. glabrata"
  uom: "µM"
  quantitativeResult: 0.4
